Counter-ions that a name gives are not always drawn.
IC50, EGFR WT (Homo sapiens (Human)), per-entry values.

// solved cases for IC50 follow
>>> readout_value("C=CC(=O)N1CCN(c2ccc3ncnc(Nc4ccc(Oc5cnc6c(c5)ncn6C(F)F)c(C)c4F)c3n2)C[C@H]1C [Compound 261]")
"< 50 nM"
>>> readout_value("C=CC(=O)N1CCN(c2ncc3ncnc(Nc4cc(C)c(Oc5ccc6c(c5)nnn6C)cc4OC)c3n2)CC1 [Compound 12, trifluoroacetate]")
"100 to 500 nM"
>>> readout_value("C=CC(=O)N[C@@H]1CCCN(c2ccc3ncnc(Nc4ccc(Oc5ccc6c(c5)nnn6C)c(C)c4F)c3n2)[C@H]1C (single isomer, unassigned) [Compound 349]")
"100 to 500 nM"
>>> readout_value("C=CC(=O)N1CC[C@@H](N(C)c2ncc3ncnc(Nc4ccc(Oc5ccc6c(c5)nnn6C)c(C)c4)c3n2)C1 [Compound 128]")
"100 to 500 nM"
>>> readout_value("C=CC(=O)N1CCN(c2ccc3ncnc(Nc4cc(C)c(Oc5ccc6c(c5)nnn6C)cc4OC)c3n2)CC1 [Compound 79]")
"100 to 500 nM"

**Query** What IC50 value was documented for this compound, C=CC(=O)N1CCN(c2ncc3ncnc(Nc4ccc(Oc5ccc6c(c5)nnn6C)c(C)c4)c3n2)C[C@@H]1CO [Compound 25] ?
**Result** 100 to 500 nM

###

pIC50: −log10 of the molar value.
Observed pIC50 for EGFR WT (Homo sapiens (Human), UniProt P00533), reported per entry below.

Take a look at these entries with their results.
>>> readout_value("C=CC(=O)N[C@H]1CCCCN(c2ccc3ncnc(Nc4ccc(Oc5ccc6c(c5)nnn6C)c(C)c4F)c3n2)C1 [Compound 291]")
"6.30 to 7.00"
>>> readout_value("C=CC(=O)N1CCN(c2ncc3ncnc(Nc4ccc(Oc5ccc6c(c5)nnn6C)c(C)c4F)c3n2)CC1 [Compound 7]")
"> 7.30"
>>> readout_value("C=CC(=O)N[C@@H]1CCCN(c2ncc3ncnc(Nc4ccc(Oc5cc(F)c6c(c5)nnn6C)c(C)c4F)c3n2)C1 [Compound 178]")
"> 7.30"

# evaluate next
**Query** Requested read-out: pIC50. Entry: C=CC(=O)N1CCN(c2ncc3ncnc(Nc4ccc(Oc5cc(F)c6c(c5)ncn6C)c(C)c4F)c3n2)CC1 [Compound 111]
**Result** > 7.30

###

# subject of test: ErbB2 V777L (Homo sapiens (Human), UniProt P04626, V777L)
# Sequence (P04626 23-1255 V777L): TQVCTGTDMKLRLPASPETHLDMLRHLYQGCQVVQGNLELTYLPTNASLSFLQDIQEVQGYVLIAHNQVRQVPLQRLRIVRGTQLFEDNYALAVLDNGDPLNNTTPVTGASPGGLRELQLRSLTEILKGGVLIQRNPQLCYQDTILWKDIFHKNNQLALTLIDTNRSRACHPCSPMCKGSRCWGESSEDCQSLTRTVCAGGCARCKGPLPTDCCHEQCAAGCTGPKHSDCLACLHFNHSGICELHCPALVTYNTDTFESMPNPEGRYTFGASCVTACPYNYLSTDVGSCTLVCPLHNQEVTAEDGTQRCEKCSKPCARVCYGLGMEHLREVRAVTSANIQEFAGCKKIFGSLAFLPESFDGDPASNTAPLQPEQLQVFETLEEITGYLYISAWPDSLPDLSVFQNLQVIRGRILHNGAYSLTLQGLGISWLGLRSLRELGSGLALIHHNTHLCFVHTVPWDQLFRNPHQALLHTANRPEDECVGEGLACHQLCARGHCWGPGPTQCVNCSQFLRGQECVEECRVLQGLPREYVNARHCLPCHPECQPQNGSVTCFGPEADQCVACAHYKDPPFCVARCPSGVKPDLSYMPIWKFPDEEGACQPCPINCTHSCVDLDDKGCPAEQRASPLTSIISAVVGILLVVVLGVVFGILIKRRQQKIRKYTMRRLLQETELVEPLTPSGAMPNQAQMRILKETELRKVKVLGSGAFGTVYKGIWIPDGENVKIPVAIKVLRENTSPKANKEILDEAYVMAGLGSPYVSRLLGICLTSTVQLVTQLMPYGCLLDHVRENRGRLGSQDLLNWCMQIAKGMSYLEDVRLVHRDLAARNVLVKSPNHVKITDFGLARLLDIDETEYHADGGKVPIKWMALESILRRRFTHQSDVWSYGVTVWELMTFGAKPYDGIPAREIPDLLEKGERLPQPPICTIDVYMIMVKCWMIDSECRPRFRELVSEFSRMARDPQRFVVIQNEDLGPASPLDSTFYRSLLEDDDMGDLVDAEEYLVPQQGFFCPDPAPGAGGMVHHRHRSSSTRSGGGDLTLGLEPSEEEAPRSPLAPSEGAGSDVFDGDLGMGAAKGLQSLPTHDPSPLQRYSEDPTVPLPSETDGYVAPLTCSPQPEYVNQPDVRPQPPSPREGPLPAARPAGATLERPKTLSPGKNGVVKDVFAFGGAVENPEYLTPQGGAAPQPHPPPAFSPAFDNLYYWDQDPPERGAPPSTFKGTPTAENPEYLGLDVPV
# method: ErbB enzyme assay (CisBio HTRF-KinEASE-TK), ErbB2 V777L
# Format: biochemical
pIC50: −log10 of the molar value.
measurement label: pIC50

# annotated cases, reported pIC50 shown
>>> readout_value("C=CC(=O)N1C2CCC1CN(c1ccc3ncnc(Nc4cc(C)c(Oc5ccc6c(c5)nnn6C)cc4OC)c3n1)C2 [Compound 80]")
"6.30 to 7.00"
>>> readout_value("C=CC(=O)N1CCN(c2ncc3ncnc(Nc4cc(C)c(Oc5ccc6c(c5)ncn6C(F)F)cc4OC)c3n2)C[C@H]1C [Compound 39]")
"6.30 to 7.00"

**Query** # lookup: pIC50 of C=CC(=O)N1CCN(c2ccc3ncnc(Nc4ccc(Oc5ccc6c(c5)nnn6C)c(C)c4F)c3n2)C[C@H]1C(C)C [Compound 259]
**Result** 6.00 to 6.30

**Query** Then C=CC(=O)N1CC=C(c2ncc3ncnc(Nc4ccc(Oc5ccn6ncnc6c5)c(C)c4F)c3n2)C[C@@H]1C [Compound 404] ?
**Result** 6.30 to 7.00

**Query** Likewise for C=CC(=O)N[C@@H]1CCCN(c2ccc3ncnc(Nc4ccc(Oc5ccc6c(c5)nnn6C)c(C)c4F)c3n2)[C@H]1C (single isomer, unassigned) [Compound 349] ?
**Result** 7.00 to 7.30

**Query** What would you report for C=CC(=O)N1CC[C@H]2CN(c3ncc4ncnc(Nc5ccc(Oc6ccc7c(c6)nnn7C)c(C)c5)c4n3)C[C@H]21 [Compound 149] ?
**Result** 6.30 to 7.00

###

# subject of test: ErbB2 V777L (Homo sapiens (Human), UniProt P04626, V777L)
# method: ErbB enzyme assay (CisBio HTRF-KinEASE-TK), ErbB2 V777L
# Format: biochemical
# measurement context: ErbB2 V777L enzyme, ATP at Km (110 μM), 1 h incubation
IC50 for assorted compounds

Previously resolved entries follow.
>>> readout_value("C=CC(=O)N1CCN(c2ncc3ncnc(Nc4cc(C)c(Oc5cc(F)c6c(c5)nnn6C)cc4OC)c3n2)C[C@H]1C")
"500 to 1000 nM"
>>> readout_value("C=CC(=O)N1CCN(c2ccc3ncnc(Nc4cc(C)c(Oc5ccc6c(c5)nnn6C)cc4OC)c3n2)C[C@H]1C")
"50 to 100 nM"

**Query** Which IC50 value belongs to "C=CC(=O)N1CCCN(c2ccc3ncnc(Nc4ccc(Oc5ccc6c(c5)nnn6C)c(C)c4)c3n2)CC1" ?
**Result** 100 to 500 nM

###

pIC50: −log10 of the molar value.
Entries with reported pIC50 on UniProt P00533

>>> readout_value("C=CC(=O)N1CCN(c2ncc3ncnc(Nc4ccc(Oc5ccc6c(c5)nnn6CC)c(C)c4)c3n2)CC1 [Compound 133]")
"6.00 to 6.30"

**Query** State the recorded pIC50 for this entry: C=CC(=O)N1CCN(c2ncc3ncnc(Nc4cc(F)c(Oc5ccc6c(c5)nnn6C)c(Cl)c4)c3n2)C[C@H]1C [Compound 194]
**Result** > 7.30

**Query** // next record C=CC(=O)N1CCN(c2ccc3ncnc(Nc4ccc(Oc5cc(F)c6c(c5)nnn6C)c(C)c4F)c3n2)CC1 [Compound 91]
**Result** > 7.30

**Query** Now this one: C=CC(=O)N1C2CCC1CC(c1ccc3ncnc(Nc4ccc(Oc5ccc6c(c5)nnn6C)c(C)c4)c3n1)C2 (stereo not shown) [Compound 397]
**Result** 6.00 to 6.30

###

pIC50: −log10 of the molar value.
Assay read-out pIC50; system under study: UniProt P00533.

Study these solved cases before continuing.
>>> readout_value("C=CC(=O)N1CCN(c2ncc3ncnc(Nc4ccc(Oc5ccc6c(c5)nnn6C)c(C)c4)c3n2)C[C@H]1CC [Compound 119]")
"6.00 to 6.30"
>>> readout_value("C=CC(=O)N1CC2CCC1CN2c1ccc2ncnc(Nc3ccc(Oc4ccc5c(c4)nnn5C)c(C)c3)c2n1 (stereo not drawn) [Compound 82]")
"> 7.30"
>>> readout_value("C=CC(=O)N[C@H]1CCCN(c2ccc3ncnc(Nc4ccc(Oc5ccc6c(c5)nnn6C)c(C)c4F)c3n2)CC1 [Compound 282]")
"6.00 to 6.30"
>>> readout_value("C=CC(=O)N[C@]1(C)CCN(c2ccc3ncnc(Nc4ccc(Oc5ccc6c(c5)nnn6C)c(C)c4F)c3n2)C1 [Compound 270]")
"6.30 to 7.00"
>>> readout_value("C=CC(=O)N[C@H]1CCCN(c2ncc3ncnc(Nc4ccc(Oc5ccc6c(c5)nnn6C)c(C)c4)c3n2)C1 [Compound 126]")
"6.00 to 6.30"

**Query** I would be grateful if you could share the reported pIC50 for COC[C@@H]1CN(c2ccc3ncnc(Nc4ccc(Oc5ccc6c(c5)nnn6C)c(C)c4)c3n2)CCN1C(=O)/C=C/CF [Compound 363] .
**Result** 7.00 to 7.30

###

# subject of test: ErbB2 V777L (Homo sapiens (Human), UniProt P04626, V777L)
# method: ErbB enzyme assay (CisBio HTRF-KinEASE-TK), ErbB2 V777L
# Assay type: biochemical
pIC50: −log10 of the molar value. Structures can show the parent of a compound that is named as a salt.
Parameter: pIC50. Scope: all listed entries.

Consider the reported pIC50 for these molecules:
>>> readout_value("C=CC(=O)N(C)[C@H]1C[C@H](Oc2ncc3ncnc(Nc4ccc(Oc5cc(F)c6c(c5)ncn6C)c(C)c4)c3n2)C1")
"7.00 to 7.30"
>>> readout_value("C=CC(=O)N1CCN(c2ncc3ncnc(Nc4ccc(Oc5ccc6c(c5)nnn6C)c(C)c4)c3n2)CC1(C)C")
"7.00 to 7.30"
>>> readout_value("C=CC(=O)N1[C@@H]2COC[C@H]1CN(c1ncc3ncnc(Nc4ccc(Oc5ccc6c(c5)nnn6C)c(C)c4)c3n1)C2")
"7.00 to 7.30"
>>> readout_value("C=CC(=O)N1CCCN(c2ccc3ncnc(Nc4cc(C)c(Oc5ccc6c(c5)nnn6C)cc4OC)c3n2)CC1")
"6.00 to 6.30"
>>> readout_value("C=CC(=O)N1CCN(c2ccc3ncnc(Nc4cc(C)c(Oc5ccc6c(c5)nnn6C)cc4OC(F)(F)F)c3n2)CC1")
"6.30 to 7.00"

**Query** Value lookup for pIC50; key = "C=CC(=O)N1C[C@@H](C)N(c2ncc3ncnc(Nc4ccc(Oc5ccc6c(c5)nnn6C)c(C)c4)c3n2)C[C@H]1C"
**Result** 6.30 to 7.00

**Query** Next entry: "C=CC(=O)N1CCN(c2ncc3ncnc(Nc4ccc(Oc5cnc6c(c5)ncn6C(F)F)c(C)c4F)c3n2)C[C@H]1C"
**Result** 6.30 to 7.00

**Query** Next record, please: C=CC(=O)N1C2C=C(c3ccc4ncnc(Nc5ccc(Oc6ccc7c(c6)nnn7C)c(C)c5)c4n3)CC1CCC2 (stereo not drawn)
**Result** 6.30 to 7.00

**Query** Same again, this time with C=CC(=O)N1C2CCCC1CC(c1ccc3ncnc(Nc4ccc(Oc5ccc6c(c5)nnn6C)c(C)c4)c3n1)C2 (stereo not drawn) [Compound 395, trifluoroacetate]
**Result** 6.30 to 7.00

**Query** Consider next the molecule "C=CC(=O)N1CCN(c2ccc3ncnc(Nc4ccc(Oc5cnc6c(c5)ncn6C(F)F)c(C)c4F)c3n2)C[C@H]1C" in the same way.
**Result** 6.30 to 7.00
